# Tested on: S. agalactiae NEM316 WT
# METHOD NOTES: Minimal Inhibitory Concentration (MIC) assay, absence of colistin
# Type: cell-based
# ASSAY SETUP: Streptococcus agalactiae, NEM316WT; S. agalactiae wt strain, absence of colistin, overnight, no visible growth; read-out: MIC SAG wt
MEASURED PARAMETER: MIC

Known MIC results, listed for orientation:
| COMPOUND | TARGET DESC | MIC |
| --- | --- | --- |
| CCOC(=O)c1cc(-c2cnc3c(NCCCO)nc4cc(C(F)(F)F)ccc4n23)[nH]n1 | S. agalactiae NEM316 WT | > 32 µg/mL |
| CNC(=O)c1cc(-c2cnc3c(NCCCO)nc4cc(C(F)(F)F)ccc4n23)[nH]n1 | S. agalactiae NEM316 WT | > 32 µg/mL |
| OCCCNc1nc2cc(OC(F)(F)F)ccc2n2c(-c3ccn[nH]3)cnc12 | S. agalactiae NEM316 WT | > 32 µg/mL |

We next turn to a different compound, shown below.
# input I have this compound here, CC(C)(C)c1cc(-c2cnc3c(NCCCO)nc4cc(C(F)(F)F)ccc4n23)[nH]n1 , and I need its recorded MIC.
# output > 32 µg/mL

* * *

# IC50 annotations
# TARGET DESC: DltA enzyme (Streptococcus agalactiae serotype III, UniProt Q8VM67)
# Construct: His-tag (from pET100 vector) (N); made in house; host or cells: E. coli BL21 (DE3) Star
# Sequence (Q8VM67 1-511): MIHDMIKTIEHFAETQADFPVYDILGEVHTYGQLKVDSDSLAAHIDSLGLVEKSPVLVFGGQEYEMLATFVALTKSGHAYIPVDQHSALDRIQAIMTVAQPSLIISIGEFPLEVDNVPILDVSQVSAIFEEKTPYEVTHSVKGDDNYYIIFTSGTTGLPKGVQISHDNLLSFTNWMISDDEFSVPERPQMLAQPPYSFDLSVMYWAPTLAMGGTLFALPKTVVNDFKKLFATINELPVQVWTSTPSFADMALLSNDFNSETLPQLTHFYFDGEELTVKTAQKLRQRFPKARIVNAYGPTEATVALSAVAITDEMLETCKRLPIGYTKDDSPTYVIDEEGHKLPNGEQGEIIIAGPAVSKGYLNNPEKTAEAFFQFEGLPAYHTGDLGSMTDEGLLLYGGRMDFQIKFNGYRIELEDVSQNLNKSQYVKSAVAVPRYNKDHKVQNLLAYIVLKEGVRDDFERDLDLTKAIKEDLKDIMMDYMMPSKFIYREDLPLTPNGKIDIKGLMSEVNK
# METHOD NOTES: DltA HTS assays (luminescent / fluorescent), inhibition of DltA enzymatic activity in vitro
# Format: biochemical, S. agalactiae
# ASSAY SETUP: Table 1; DltA inhibition, HTS assays of method 1; read-out: IC50
Reply with the number and its unit after it.

# input I have this compound here, CS(=O)(=O)N1CC=C(c2cnc3c(NCCCO)nc4cc(C(F)(F)F)ccc4n23)CC1 , and I need its recorded IC50.
# output 410 nM

# input I have this compound here, CC(C)(C)c1cc(-c2cnc3c(NCCCO)nc4cc(C(F)(F)F)ccc4n23)[nH]n1 , and I need its recorded IC50.
# output 49 nM

# input I have this compound here, NCc1ccc(-c2cnc3c(NCCCO)nc4cc(C(F)(F)F)ccc4n23)cc1 , and I need its recorded IC50.
# output 240 nM

# input I have this compound here, COc1ccc(-c2cnc3c(NCCCO)nc4cc(C(F)(F)F)ccc4n23)cn1 , and I need its recorded IC50.
# output 480 nM

* * *

# System: S. agalactiae NEM316 WT
# METHOD NOTES: Minimal Inhibitory Concentration (MIC) assay, absence of colistin
# Type: cell-based
# ASSAY SETUP: Streptococcus agalactiae, NEM316WT; S. agalactiae wt strain, absence of colistin, overnight, no visible growth; read-out: MIC SAG wt
MEASURED PARAMETER: MIC

Known MIC results, listed for orientation:
| COMPOUND | MIC |
| --- | --- |
| OCCCNc1nc2cc(C(F)(F)F)ccc2n2c(-c3ccn[nH]3)cnc12 | > 32 µg/mL |
| Cc1cc(-c2cnc3c(NCCCO)nc4cc(C(F)(F)F)ccc4n23)[nH]n1 | > 32 µg/mL |

We next turn to a different molecule, shown below.
# input I have this molecule here, OCCCNc1nc2cc(C(F)(F)F)ccc2n2c(-c3cccc(CO)c3)cnc12 , and I need its recorded MIC.
# output > 32 µg/mL

* * *

# TARGET DESC: DltA enzyme (Streptococcus agalactiae serotype III, UniProt Q8VM67)
# Construct: His-tag (from pET100 vector) (N); made in house; host or cells: E. coli BL21 (DE3) Star
# Sequence (Q8VM67 1-511): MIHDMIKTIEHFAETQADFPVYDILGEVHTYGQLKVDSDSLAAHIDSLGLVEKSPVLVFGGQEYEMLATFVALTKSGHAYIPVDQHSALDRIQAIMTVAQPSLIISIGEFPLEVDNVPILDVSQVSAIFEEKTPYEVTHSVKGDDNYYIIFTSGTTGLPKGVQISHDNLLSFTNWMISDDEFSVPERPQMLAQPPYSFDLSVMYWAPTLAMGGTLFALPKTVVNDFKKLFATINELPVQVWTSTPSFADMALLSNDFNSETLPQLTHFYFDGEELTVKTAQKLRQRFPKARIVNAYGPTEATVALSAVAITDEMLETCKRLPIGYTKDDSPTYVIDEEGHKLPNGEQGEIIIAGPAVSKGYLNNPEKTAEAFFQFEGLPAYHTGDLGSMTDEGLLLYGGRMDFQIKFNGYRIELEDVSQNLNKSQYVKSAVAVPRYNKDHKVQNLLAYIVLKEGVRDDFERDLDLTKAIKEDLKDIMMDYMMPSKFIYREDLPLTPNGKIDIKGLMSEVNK
# METHOD NOTES: DltA HTS assays (luminescent / fluorescent), inhibition of DltA enzymatic activity in vitro
# Type: biochemical, S. agalactiae
# ASSAY SETUP: Table 1; DltA inhibition, HTS assays of method 1; read-out: IC50
Structures can show the parent of a compound that is named as a salt.
MEASURED PARAMETER: pIC50
pIC50 here is simply -log10 of the concentration when that concentration is written in mol/L.

Known pIC50 results, listed for orientation:
| COMPOUND | ASSAY VALUE |
| --- | --- |
| CC(=O)Nc1cccc(-c2cnc3c(NCCCO)nc4cc(C(F)(F)F)ccc4n23)c1 [Example 8] | 6.92 |
| CCOC(=O)c1cc(-c2cnc3c(NCCCO)nc4cc(C(F)(F)F)ccc4n23)[nH]n1 [Example 47] | 7.46 |
| Cc1n[nH]c(-c2cnc3c(NCCCO)nc4cc(OC(F)(F)F)ccc4n23)n1 [Example 55] | 7.60 |
| OCCCNc1nc2cc(OC(F)(F)F)ccc2n2c(-c3ccn[nH]3)cnc12 [Example 51] | 8.05 |
| OCCCNc1nc2cc(C(F)(F)F)ccc2n2c(-c3cn(Cc4ccccc4)nn3)cnc12 [Example 34] | 6.24 |
| NS(=O)(=O)c1cccc(-c2cnc3c(NCCCO)nc4cc(C(F)(F)F)ccc4n23)c1 [Example 9] | 6.16 |
| O=P(O)(O)OCCCNc1nc2cc(C(F)(F)F)ccc2n2c(-c3ccn[nH]3)cnc12 [Example 58, disodium salt] | 4.72 |

# input I have this compound here, COc1cc(-c2cnc3c(NCCCO)nc4cc(C(F)(F)F)ccc4n23)ccc1N [Example 21] , and I need its recorded pIC50.
# output 6.57

* * *

# TARGET DESC: DltA enzyme (Streptococcus agalactiae serotype III)
# Construct: His-tag (from pET100 vector) (N); made in house; host or cells: E. coli BL21 (DE3) Star
# Sequence (Q8VM67 1-511): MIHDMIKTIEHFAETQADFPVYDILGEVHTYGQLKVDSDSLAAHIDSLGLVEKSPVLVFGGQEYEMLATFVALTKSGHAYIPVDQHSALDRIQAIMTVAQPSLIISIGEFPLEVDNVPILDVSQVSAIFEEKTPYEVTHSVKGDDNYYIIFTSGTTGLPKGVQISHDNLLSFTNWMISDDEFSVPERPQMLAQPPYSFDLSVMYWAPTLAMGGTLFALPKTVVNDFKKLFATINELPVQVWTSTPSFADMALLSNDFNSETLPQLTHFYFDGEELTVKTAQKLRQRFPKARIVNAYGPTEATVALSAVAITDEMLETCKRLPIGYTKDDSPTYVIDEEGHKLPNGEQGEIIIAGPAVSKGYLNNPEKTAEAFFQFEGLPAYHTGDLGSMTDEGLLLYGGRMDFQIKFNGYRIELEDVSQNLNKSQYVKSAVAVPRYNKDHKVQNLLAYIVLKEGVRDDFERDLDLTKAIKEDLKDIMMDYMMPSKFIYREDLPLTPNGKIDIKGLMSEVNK
# METHOD NOTES: DltA HTS assays (luminescent / fluorescent), inhibition of DltA enzymatic activity in vitro
# Type: biochemical, S. agalactiae
MEASURED PARAMETER: IC50

# input I have this compound here, COc1ccc(-c2cc(-c3cnc4c(NCCCO)nc5cc(C(F)(F)F)ccc5n34)[nH]n2)cc1 , and I need its recorded IC50.
# output 790 nM
